Entry source: patent US11059808B2

# Test system: TZM-bl cells
# Experiment: Cytotoxicity in TZM-bl cells (XTT)
# Format: cell-based
# Run Parameters: XTT, 3 days
Quantity: CC50

The following compounds have reported results that may help.
compound="Cc1nc(C(CN)NC(=O)c2ccc(-c3ccc(F)c(F)c3)[nH]2)sc1CO (single isomer, unassigned)" quantity=CC50 measured_result="> 51 µM"
compound="Cc1ccc(-c2ccc(C(=O)NC(CN(C)C)c3nc(C)c(CO)s3)[nH]2)cc1F (single isomer, unassigned)" quantity=CC50 measured_result="> 40 µM"

We now examine a further compound.
Would you kindly share the measured CC50 for Cc1nc(C(CN(C)C)NC(=O)c2ccc(-c3ccc(Cl)cc3)[nH]2)sc1CO (single isomer, unassigned) ? ~30 µM
